Where do these numbers come from? They come from PubChem BioAssay.

Listing of entries alongside the reported viability.
- assaySummary: reversal of MRP1-mediated doxorubicin resistance, pilot screen, H69AR cells, doxorubicin co-treatment (AID 601)
- conditionSet: H69AR cells + 2 uM doxorubicin, CellTiter-Glo, 72 h; measured here: viability with 2 uM doxorubicin; at 10 µM; stronger effect = lower value
Answer format: numeric, % implied, no suffix.

Worked examples follow.
CCOC(=O)n1c(SCC(=O)N(CC)CC)nc2ccccc21 85.7
Cn1c(=O)c(=O)n(C)c2cc(S(=O)(=O)N3CCN(c4cccc(C(F)(F)F)c4)CC3)ccc21 94.3
O=C(CCn1c(=O)sc2ccccc21)NCc1ccc2c(c1)OCO2 91.5

--- query ---
Given the compound CN(C)C(=O)CN(C)S(=O)(=O)c1ccc(Cl)cc1 , what is its reported viability?
104

---

Each item that follows carries a reported Her2 level.
- target: Receptor tyrosine-protein kinase erbB-2 (Homo sapiens)
- assaySummary: reducers of endogenous Her2 protein level, primary screen, SKBR3 breast tumor cells, AlphaScreen, ATP viability (AID 461);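 also: lower value means less Her2 protein in the cells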
- conditionSet: 18-24 h, at 10 µM, stronger effect = lower value
Unit % implied. Number only.

Consider the following illustrative entries.
compound	valueUnit	Her2 level
CCS(=O)(=O)N1CCC(C(=O)NC2CCCCC2)CC1	%	99
C/C(Cl)=C/Cn1c(SCc2ccc(Cl)cc2)nc2c1c(=O)[nH]c(=O)n2C	%	110
O=C1NCC(COCc2ccccc2)O1 (stereo unspecified)	%	96

Now turn to the next compound.
Can you share its Her2 level? I mean this compound: CCOc1cc2[nH]c(=S)n(CC3CCCO3)c(=O)c2cc1OCC (stereo unspecified)
103

---

- assaySummary: reversal of MRP1-mediated doxorubicin resistance, pilot screen, H69AR cells, doxorubicin co-treatment (AID 601)
- conditionSet: H69AR cells + 2 uM doxorubicin, CellTiter-Glo, 72 h; at 10 µM; stronger effect = higher value
Item-by-item account of differential viability (reversal)
Enter your answer as a number in %; do not include the unit.

compound	valueUnit	differential viability (reversal)
CC1Cc2ccccc2N1C(=O)c1cnsn1 (stereo not drawn)	%	10.4
COc1cc(NC(=O)c2cc(-n3cnnc3)ccc2Cl)cc(OC)c1	%	19.9
COC(=O)c1sccc1NC(=O)c1ccco1	%	-5.95

Fill in the blank: the reported differential viability (reversal) of COc1ccc(C)cc1NC(=O)CN1CCN(S(=O)(=O)c2ccc(Cl)cc2)CC1 is ____.
25.3

I am curious: what differential viability (reversal) value has been reported for COCC(=O)N(Cc1ccccc1)c1ccccn1 ?
-1.27

Can you look up the measured differential viability (reversal) of CCOc1cc(S(=O)(=O)NCc2ccc3c(c2)OCO3)ccc1F for me?
4.41

Which differential viability (reversal) is reported for this compound? CC(C)NC(=O)Nc1cccs1
-3.51

Consider the compound CCC(=O)Nc1ccc(NC(=O)CSc2nnnn2C(C)C)cc1 and give its measured differential viability (reversal).
3.14

So what's the measured differential viability (reversal) for this one? Cc1ccc(C)c(NS(=O)(=O)c2ccc(NC(=O)c3ccco3)cc2)c1
-5.62

For CC1(C)CC(=O)C2=C(C1)NC(=O)CC2C(=O)NCc1ccc(F)cc1 (stereo not drawn) , what is its reported differential viability (reversal)?
15.3

Name the reported differential viability (reversal) value associated with the compound O=C(Nc1nnc(C2CCCCC2)s1)c1cccs1
10.4

Which differential viability (reversal) is listed for C1=Nc2c(NCc3ccccc3)ncnc2Oc2ccccc21 ?
7.99

For the compound COC(=O)c1ccc(CSc2nnnn2Cc2ccccc2)cc1 , what differential viability (reversal) is on record?
0.715
